Test system: Angiotensin II receptor
Test details: In vitro angiotensin II mesenteric artery receptor binding assay (test 1)
Test settings: rat mesenteric artery membrane fraction, 0.2 nM 125I-Ang II, 22°C, 90 minutes
Property: IC50; scope: individual compounds
Observed property: IC50 (nM)

[[record]]
compound = "CCCc1nc2c(=O)n3n(c(=O)c2n1Cc1ccc(-c2ccccc2-c2nn[nH]n2)cc1)C(C)CCC3C (stereo not drawn)"
value_comparator = "="
result_value = 4.6

[[record]]
compound = "CCCc1nc2c(=O)n3n(c(=O)c2n1Cc1ccc(-c2ccccc2-c2nn[nH]n2)cc1)C(C(=O)O)CCC3C (stereo not drawn)"
value_comparator = ">"
result_value = 30

[[record]]
compound = "CCCc1nc2c(=O)n3n(c(=O)c2n1Cc1ccc(-c2ccccc2-c2nnn[nH]2)cc1)C(C(=O)NC(C)(C)C)CCC3C (stereo not drawn)"
value_comparator = "="
result_value = 58

[[record]]
compound = "CCCCc1nc2c(=O)n3n(c(=O)c2n1Cc1ccc(-c2ccccc2-c2nn[nH]n2)cc1)C1CCC3(C(=O)OCC)CC1"
value_comparator = "="
result_value = 4.6

[[record]]
compound = "CCCCc1nc2c(=O)n3n(c(=O)c2n1Cc1ccc(-c2ccccc2-c2nn[nH]n2)cc1)C(C)CCC3C(=O)OCC (stereo not drawn)"
value_comparator = "="
result_value = 1.3

[[record]]
compound = "CCCCc1nc2c(=O)n3n(c(=O)c2n1Cc1ccc(-c2ccccc2-c2nn[nH]n2)cc1)CC=CC3"
value_comparator = "="
result_value = 7

[[record]]
compound = "CCCCc1nc2c(=O)n3n(c(=O)c2n1Cc1ccc(-c2ccccc2-c2nn[nH]n2)cc1)C1(C(=O)OC)CCC3CC1"
value_comparator = "="
result_value = 69

[[record]]
compound = "CCCCc1nc2c(=O)n3n(c(=O)c2n1Cc1ccc(-c2ccccc2-c2nn[nH]n2)cc1)C1(C(=O)OCC)CCC3CC1"
value_comparator = ">"
result_value = 100

[[record]]
compound = "CCCc1nc2c(n1Cc1ccc(-c3ccccc3-c3nn[nH]n3)cc1)C(=O)N1C3CCC(CC3)N1C2"
value_comparator = "="
result_value = 7.5

[[record]]
compound = "CCCc1nc2c(n1Cc1ccc(-c3ccccc3-c3nn[nH]n3)cc1)C(=O)N1CCCCN1C2"
value_comparator = "="
result_value = 32

[[record]]
compound = "CCCc1nc2c(=O)n3n(c(=O)c2n1Cc1ccc(-c2ccccc2-c2nn[nH]n2)cc1)C(C)CCC3C(=O)OCC (stereo not drawn)"
value_comparator = "="
result_value = 1.9

[[record]]
compound = "CCCc1nc2c(n1Cc1ccc(-c3ccccc3-c3nn[nH]n3)cc1)C(=O)N1N(C2)C2(C)CCC1(C)CC2"
value_comparator = "="
result_value = 1.7

[[record]]
compound = "CCCc1nc2c(n1Cc1ccc(-c3ccccc3-c3nnn[nH]3)cc1)C(=O)N1N(C2)C2(CC)CCC1(CC)CC2"
value_comparator = "="
result_value = 3.5

[[record]]
compound = "CCCc1nc2c(=O)n3n(c(=O)c2n1Cc1ccc(-c2ccccc2-c2nnn[nH]2)cc1)C1CCC3(COCC(=O)OC(C)(C)C)CC1"
value_comparator = "="
result_value = 9.8

[[record]]
compound = "CCCc1nc2c(=O)n3n(c(=O)c2n1Cc1ccc(-c2ccccc2-c2nn[nH]n2)cc1)C1CCC3CC1"
value_comparator = "="
result_value = 1.9

[[record]]
compound = "CCc1nc2c(=O)n3n(c(=O)c2n1Cc1ccc(-c2ccccc2-c2nn[nH]n2)cc1)C1(CC)CCC3(CC)CC1"
value_comparator = ">"
result_value = 100

[[record]]
compound = "CCCc1nc2c(=O)n3n(c(=O)c2n1Cc1ccc(-c2ccccc2-c2nnn[nH]2)cc1)C1CCC3(COCC(C)O)CC1 (stereo not drawn)"
value_comparator = "="
result_value = 38

[[record]]
compound = "CCCCc1nc2c(n1Cc1ccc(-c3ccccc3-c3nnn[nH]3)cc1)C(=O)N1N(C2)C2(CC)CCC1(CC)CC2"
value_comparator = "="
result_value = 3.3

[[record]]
compound = "CCCc1nc2c(=O)n3n(c(=O)c2n1Cc1ccc(-c2ccccc2-c2nn[nH]n2)cc1)CC(C)C(C)C3 (stereo not drawn)"
value_comparator = "="
result_value = 5.3

[[record]]
compound = "CCCc1nc2c(=O)n3n(c(=O)c2[nH]1)C1CCC3(C(C)(C)O)CC1"
value_comparator = ">"
result_value = 100

[[record]]
compound = "CCCc1nc2c(=O)n3n(c(=O)c2[nH]1)C(C)CCC3C (stereo not drawn)"
value_comparator = "="
result_value = 4.6

[[record]]
compound = "CCCc1nc2c(=O)n3n(c(=O)c2n1Cc1ccc(-c2ccccc2-c2nn[nH]n2)cc1)C(C)CCC3c1nc(C)no1 (stereo not drawn)"
value_comparator = "="
result_value = 65

[[record]]
compound = "CCCc1nc2c(=O)n3n(c(=O)c2n1Cc1ccc(-c2ccccc2-c2nn[nH]n2)cc1)C(C(=O)OCC)CCC3C (stereo not drawn)"
value_comparator = "="
result_value = 4

[[record]]
compound = "CCCCc1nc2c(=O)n3n(c(=O)c2n1Cc1ccc(-c2ccccc2-c2nn[nH]n2)cc1)C1CCC3(C(=O)NC(C)(C)C)CC1"
value_comparator = "="
result_value = 32

[[record]]
compound = "CCCCc1nc2c(n1Cc1ccc(-c3ccccc3-c3nn[nH]n3)cc1)C(=O)N1N(C2)C2CCC1(C)CC2"
value_comparator = "="
result_value = 2.5

[[record]]
compound = "CCCCc1nc2c(=O)n3n(c(=O)c2n1Cc1ccc(-c2ccccc2-c2nn[nH]n2)cc1)C1CCC3CC1"
value_comparator = "="
result_value = 2.8

[[record]]
compound = "CCCCc1nc2c(=O)n3n(c(=O)c2n1Cc1ccc(-c2ccccc2-c2nn[nH]n2)cc1)CCCC3"
value_comparator = "="
result_value = 5.3


---

Test system: Angiotensin II receptor
Test details: In vitro angiotensin II mesenteric artery receptor binding assay (test 1)
Test settings: rat mesenteric artery membrane fraction, 0.2 nM 125I-Ang II, 22°C, 90 minutes
Observed property: IC50 (nM)

[[record]]
molecule = "CCCc1nc2c(n1Cc1ccc(-c3ccccc3-c3nn[nH]n3)cc1)C(=O)N1CC(C)=C(C)CN1C2 [Compound No. 382]"
observed_property = "IC50"
value_units = "nM"
value_comparator = "="
result_value = 26

[[record]]
molecule = "CCc1nc2c(=O)n3n(c(=O)c2n1Cc1ccc(-c2ccccc2-c2nnn[nH]2)cc1)C1CCC3CC1 [compound 543]"
observed_property = "IC50"
value_units = "nM"
value_comparator = "="
result_value = 26

[[record]]
molecule = "CCCc1nc2c(=O)n3n(c(=O)c2n1Cc1ccc(-c2ccccc2-c2nn[nH]n2)cc1)C(C)CCC3C(=O)O (stereo not shown) [Compound No. 111]"
observed_property = "IC50"
value_units = "nM"
value_comparator = "="
result_value = 21

[[record]]
molecule = "CCCCc1nc2c(=O)n3n(c(=O)c2n1Cc1ccc(C(=O)O)cc1)C(C)CCC3C(=O)O (stereo not shown) [compound 124]"
observed_property = "IC50"
value_units = "nM"
value_comparator = ">"
result_value = 100

[[record]]
molecule = "CCCc1nc2c(=O)n3n(c(=O)c2n1Cc1ccc(-c2ccccc2-c2nn[nH]n2)cc1)CC(CC)=C(CC)C3 [Compound No. 359]"
observed_property = "IC50"
value_units = "nM"
value_comparator = "="
result_value = 35

[[record]]
molecule = "CCCCc1nc2c(=O)n3n(c(=O)c2n1Cc1ccc(-c2ccccc2-c2nnn[nH]2)cc1)C(C(=O)NC(C)(C)C)CCC3C (stereo not shown) [Compound No. 210]"
observed_property = "IC50"
value_units = "nM"
value_comparator = "="
result_value = 29

[[record]]
molecule = "CCCCc1nc2c(n1Cc1ccc(-c3ccccc3-c3nnn[nH]3)cc1)CN1C(CO)CCC(C)N1C2=O (stereo not shown) [Compound No. 540]"
observed_property = "IC50"
value_units = "nM"
value_comparator = "="
result_value = 34

[[record]]
molecule = "CCCCc1nc2c(=O)n3n(c(=O)c2n1Cc1ccc(-c2ccccc2-c2nn[nH]n2)cc1)C1(C(=O)NC(C)(C)C)CCC3CC1 [Compound No. 238]"
observed_property = "IC50"
value_units = "nM"
value_comparator = ">"
result_value = 100

[[record]]
molecule = "CCCc1nc2c(=O)n3n(c(=O)c2n1Cc1ccc(-c2ccccc2-c2nn[nH]n2)cc1)C1CCC3(C(=O)NC(C)(C)C)CC1 [Compound No. 235]"
observed_property = "IC50"
value_units = "nM"
value_comparator = "="
result_value = 21

[[record]]
molecule = "CCCc1nc2c(=O)n3n(c(=O)c2n1Cc1ccc(-c2ccccc2-c2nn[nH]n2)cc1)C(c1nc(C)no1)CCC3C (stereo not shown) [Compound No. 331]"
observed_property = "IC50"
value_units = "nM"
value_comparator = "="
result_value = 3.9

[[record]]
molecule = "CCc1nc2c(n1Cc1ccc(-c3ccccc3-c3nnn[nH]3)cc1)C(=O)N1N(C2)C2(CC)CCC1(CC)CC2 [Compound No. 453]"
observed_property = "IC50"
value_units = "nM"
value_comparator = ">"
result_value = 100

[[record]]
molecule = "CCCCc1nc2c(=O)n3n(c(=O)c2n1Cc1ccc(-c2ccccc2-c2nnn[nH]2)cc1)C1(CO)CCC3CC1 [Compound No. 222]"
observed_property = "IC50"
value_units = "nM"
value_comparator = "="
result_value = 3

[[record]]
molecule = "CCCCc1nc2c(n1Cc1ccc(-c3ccccc3-c3nn[nH]n3)cc1)C(=O)N1N(C2)C2(C)CCC1(C)CC2 [Compound No. 451]"
observed_property = "IC50"
value_units = "nM"
value_comparator = "="
result_value = 1.9

